# target-or-test-system: T1, KDM4B-DTD N951G (Homo sapiens)
# T1 chain: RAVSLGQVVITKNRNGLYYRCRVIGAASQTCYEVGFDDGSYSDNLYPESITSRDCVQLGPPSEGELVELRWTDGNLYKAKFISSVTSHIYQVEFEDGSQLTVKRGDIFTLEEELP
# procedure-text: FP
No end group written: not given here.
measured-quantity: Kd (µM)
Numbers only; they are read as µM.

stdin: Which Kd value is on record for RKQLATK(Me3)AARKSAPAT (also: fluorescein label, end not given here) [H3 (17-32) K23me3 peptide, fluorescein-labelled] ?
stdout: 32.6
